Assay: In vivo rat clearance assay
Conditions: plasma, iv, 10-20 mg/kg
clearance strictly under 20 mL/min/kg means Condition met; at 20 mL/min/kg or over means Condition not met.

compound	label.class
O=C[C@H](CC(=O)O)NC(=O)[C@@H]1CCCN2C(=O)CC[C@H](NC(=O)c3ccc(O)cc3)C(=O)N12	Condition met
COCC(=O)N1C[C@H](NC(=O)c2cccc3ccccc23)C(=O)N(CC(=O)N[C@H](C=O)CC(=O)O)c2ccccc21	Condition not met
O=C(O)C[C@H](NC(=O)[C@@H]1CCCN2C(=O)CC[C@H](NC(=O)c3ccccc3)C(=O)N12)C(=O)COc1cccnc1	Condition not met
O=C[C@H](CC(=O)O)NC(=O)[C@@H]1CCCN2C(=O)CC[C@H](NC(=O)c3ccc4ncccc4c3)C(=O)N12	Condition not met
COCC(=O)N1C[C@H](NC(=O)c2ccccc2)C(=O)N(CC(=O)N[C@H](C=O)CC(=O)O)c2ccccc21 [Compound 605e]	Condition not met
COc1cccc2nc(C(=O)[C@H](CC(=O)O)NC(=O)CN3C(=O)[C@@H](NC(=O)CCc4ccccc4)CN(C(=O)CCc4ccccc4)c4ccccc43)oc12 [Compound 108b]	Condition not met

[Q] Take the compound O=C[C@H](CC(=O)O)NC(=O)[C@@H]1CCCN2C(=O)CC[C@H](NC(=O)c3cccc(Cl)c3)C(=O)N12 and say whether its clearance is less than 20 mL/min/kg.
[A] Condition not met

[Q] Take the compound O=C[C@H](CC(=O)O)NC(=O)[C@@H]1CCCN2C(=O)CC[C@H](NC(=O)c3ccc(Cl)cc3)C(=O)N12 and say whether its clearance is less than 20 mL/min/kg.
[A] Condition not met

[Q] Take the compound O=C[C@H](CC(=O)O)NC(=O)[C@@H]1CCCN2C(=O)CC[C@H](NS(=O)(=O)c3ccccc3)C(=O)N12 and say whether its clearance is less than 20 mL/min/kg.
[A] Condition not met

[Q] Take the compound O=C[C@H](CC(=O)O)NC(=O)[C@@H]1CCCN2C(=O)CC[C@H](NC(=O)c3ccccc3)C(=O)N12 [Compound 214e] and say whether its clearance is less than 20 mL/min/kg.
[A] Condition met
